- TEST_DETAILS: LAMP-1 surface exposure blockers, TALL-104 cells – cell-based, flow cytometry, MLPCN library, primary screen (AID 651702)
- RECORDED_CONDITIONS: TALL-104 LAMP-1 surface exposure, at 10 µM, stronger effect = higher value, cells stimulated with thapsigargin and PMA
Screen size: about 360,000 compounds; about 2,400 (0.67%) were called active. Many of the other results were omitted from the sample, so actives are more common in it than they were.
PROPERTY: inhibition (%)
Number in %, nothing else.

Example entries begin here.
| MOLECULE | MEASUREMENT_UNIT | inhibition |
| --- | --- | --- |
| CC(C)c1ccc(-c2nn[nH]n2)cc1 | % | 21.6 |
| CCC(C)CN1C(=O)CN(S(C)(=O)=O)CC1(C)C(=O)Nc1ccc2c(c1)OCCO2 (stereo not given) | % | -2 |
| CCCC(=O)NC(=S)Nc1ccc(CN2CCOCC2)cc1 | % | -6.2 |
| CC(=O)NC(c1ccccc1)c1nc(-c2cccc(C(C)C)c2)cs1 (stereo not given) | % | -1.9 |

Next, consider the following molecule.
query: Tell me inhibition reported for "CC(=O)Nc1ccc(-c2csc(NC(=O)Nc3ccccc3)n2)cc1"
result: 104

----------
- TEST_DETAILS: LAMP-1 surface exposure blockers, TALL-104 cells – cell-based, flow cytometry, MLPCN library, primary screen (AID 651702)
- RECORDED_CONDITIONS: TALL-104 LAMP-1 surface exposure, at 10 µM, cells stimulated with thapsigargin and PMA
The whole screen tested about 360,000 compounds, of which about 2,400 (0.67%) were called active.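 The calls were made as follows: active = inhibition above about 55% (limit read from the data); inconclusive = no clear call, values can overlap the other calls; inactive = the rest.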 This excerpt belongs to a sample that is enriched for actives.
Output constraint: value belongs to 1 (yes) (active), 0 (no) (inactive)

| COMPOUND | CLASS_ASSIGNMENT |
| --- | --- |
| O=C(Cc1csc(Nc2nc(=S)[nH]c3ccccc23)n1)NCCCN1CCN(c2cccc(Cl)c2)CC1 | 1 (yes) |
| COc1ccc(NC(=O)C(C)SCc2ccccc2)cc1 (centres undefined) | 0 (no) |
| CC(C)(C)c1ccc(C(=O)N2CCN(CCNC(=O)C(=O)Nc3ccc(F)cc3)CC2)cc1 | 0 (no) |

With those in mind, consider the next compound.
query: Look up the recorded call for "CC1CCN(c2ccc([N+](=O)[O-])cc2C(N)=O)CC1" in this test.
result: 1 (yes)

----------
- TEST_DETAILS: LAMP-1 surface exposure blockers, TALL-104 cells – cell-based, flow cytometry, MLPCN library, primary screen (AID 651702)
- RECORDED_CONDITIONS: TALL-104 LAMP-1 surface exposure, at 10 µM, stronger effect = higher value, cells stimulated with thapsigargin and PMA
About 2,400 (0.67%) of roughly 360,000 compounds were called active. Only a selection was taken, and actives are over-represented in it overall.
PROPERTY: inhibition (%)
Number in %, nothing else.

Example entries begin here.
| COMPOUND | NUMERIC_VALUE |
| --- | --- |
| Cc1cccc(N2CCN(C(=O)c3cccc(N4C(=O)C5C6C=CC(C6)C5C4=O)c3)CC2)c1C (stereo not drawn) | -1.1 |
| O=S(=O)(N/N=C\c1cccn1-c1ccccc1)c1ccc2ccccc2c1 | -0.4 |

Next, consider the following compound.
query: Tell me inhibition reported for "COc1ccccc1CN1CCN(Cc2cc(OC)c(OC)cc2OC)CC1"
result: 4.3
